Item-by-item account of protein stability index
test system: Saccharomyces cerevisiae; experiment: protein stability index of tFT-peptide fusion (C-terminal peptide) (PSI (0-1 scale)); higher = more stable (slower turnover); settings: genetic background: das1 deletion; temperature: 30 C
The response must contain the number and no unit.

Below, 3 sequences whose answers are already recorded.
EDGRPPQNDFKE [TIM22 C-terminal 12 aa]: 0.699
DAAIVKKYKNKT [NUP57 C-terminal 12 aa]: 0.687
SLCMEAGLVNEN [YCF1 C-terminal 12 aa]: 0.696

Req: Recorded protein stability index of LPFQKLKHLIKK [MRX11 C-terminal 12 aa] , please.
Resp: 0.707

Req: Recorded protein stability index of FTNALKNMYFSA [YJR037W C-terminal 12 aa] , please.
Resp: 0.709

Req: Recorded protein stability index of HCLSNSASHSCG [YGR018C C-terminal 12 aa] , please.
Resp: 0.675

###

system: Saccharomyces cerevisiae; test: protein stability index of tFT-peptide fusion (C-terminal peptide) (PSI (0-1 scale)); higher = more stable (slower turnover); details: genetic background: das1 deletion; temperature: 37 C
Item-by-item account of protein stability index
The response must contain the number and no unit.

Below, 3 sequences whose answers are already recorded.
FFFFFLLFFLRV: 0.343
PSPPPPRPASPS: 0.728
VACLRLTVYVMG: 0.231

Here is the next item to consider.
Req: Recorded protein stability index of SVFCSLFLFLFY , please.
Resp: 0.557

###

test system: Saccharomyces cerevisiae; test: protein stability index of tFT-peptide fusion (C-terminal peptide) (PSI (0-1 scale)); higher = more stable (slower turnover); details: genetic background: wild type; temperature: 37 C
Metric: protein stability index

Below, 3 sequences whose answers are already recorded.
LASWVVFIWFLW: 0.423
WWVAGLGSSGGG: 0.765
LFPVASLCLART: 0.659

Req: Recorded protein stability index of GGGVWWGVLVLG , please.
Resp: 0.468

Req: Recorded protein stability index of VCLFRLVVFFPV , please.
Resp: 0.377

Req: Recorded protein stability index of SRPGRWRLYYVS , please.
Resp: 0.54

Req: Recorded protein stability index of RSWLCFIVFGLF , please.
Resp: 0.347

Req: Recorded protein stability index of KAIILGNIKINF , please.
Resp: 0.741

Req: Recorded protein stability index of FIVVSFCFFLFF , please.
Resp: 0.414

Req: Recorded protein stability index of GMMLLRFIIRWY , please.
Resp: 0.212

###

system: Saccharomyces cerevisiae; assay: protein stability index of tFT-peptide fusion (C-terminal peptide) (PSI (0-1 scale)); higher = more stable (slower turnover); settings: genetic background: wild type; temperature: 30 C
Assign label 1 whenever protein stability index does not fall below 0.3; assign label 0 whenever it does.

Examples from the recorded data:
LFLLYVLVSLFV: label 0
FVVIFRFSRFSA: label 1
VSSFLLPFCLLF: label 1
RDRHFKIQTCIM: label 0
GGGVWWGVLVLG: label 1

Req: Dear colleague, could you confirm whether VRMMYSVQVWCG has protein stability index at or above 0.3?
Resp: label 0

Req: Dear colleague, could you confirm whether FIVVSFCFFLFF has protein stability index at or above 0.3?
Resp: label 0

Req: Dear colleague, could you confirm whether RPGRWFCFLYCV has protein stability index at or above 0.3?
Resp: label 0
